System Tested: α1A-ARs (Homo sapiens, UniProt P35348)
Sequence (P35348 1-466): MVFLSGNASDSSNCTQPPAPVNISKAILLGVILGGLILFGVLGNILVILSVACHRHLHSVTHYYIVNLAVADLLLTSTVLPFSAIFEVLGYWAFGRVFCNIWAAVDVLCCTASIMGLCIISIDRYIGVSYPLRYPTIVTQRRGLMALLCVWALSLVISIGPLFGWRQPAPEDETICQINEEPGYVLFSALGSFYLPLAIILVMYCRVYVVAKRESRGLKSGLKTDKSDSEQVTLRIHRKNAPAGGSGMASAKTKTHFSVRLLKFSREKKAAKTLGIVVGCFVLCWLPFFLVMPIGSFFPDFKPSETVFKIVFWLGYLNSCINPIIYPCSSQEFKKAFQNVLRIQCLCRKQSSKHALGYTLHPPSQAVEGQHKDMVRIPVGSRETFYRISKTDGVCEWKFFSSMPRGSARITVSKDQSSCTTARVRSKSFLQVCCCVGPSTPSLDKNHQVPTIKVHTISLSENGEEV
Experiment Notes: Calcium flux assay (Calcium 6 dye) in cells expressing an α1-AR
Assay type: cell-based
Conditions: α1A-AR calcium flux; relative to full agonist epinephrine; mean of at least three experiments; read-out: Average Emax (% epi)
Metric: Emax

• FC(F)(F)Cc1cccc2c(Cl)nn(CC3=NCCN3)c12 [Compound 53] = 21 to 60%
• Fc1cc(C(F)(F)F)c2c(c1)c(Cl)nn2CC1=NCCN1 [Compound 65] = > 61%
• Clc1cccc2c(-n3cccc3)nn(CC3=NCCN3)c12 [Compound 58] = > 61%
• Clc1nn(CC2=NCCN2)c2c(-c3ccccn3)cccc12 [Compound 48] = 21 to 60%
• FC(F)(F)Oc1cccc2c(Cl)nn(CC3=NCCN3)c12 [Compound 37] = > 61%
• CC(F)(F)c1cc(F)cc2c(Cl)nn(CC3=NCCN3)c12 [Compound 75] = 21 to 60%
• Clc1nn(CC2=NCCN2)c2c(-c3ccccc3)cccc12 [Compound 34] = 21 to 60%
• Cc1cccc2c(N3CCCCC3)nn(CC3=NCCN3)c12 [Compound 68] = < 20%
• Clc1cccc2c(C3=CCOCC3)nn(CC3=NCCN3)c12 [Compound 54] = 21 to 60%
• Clc1nn(CC2=NCCN2)c2c(-c3cnccn3)cccc12 [Compound 52] = < 20%
• Clc1nn(CC2=NCCN2)c2c(N3CCCC3)cccc12 [Compound 67] = 21 to 60%
• FC(F)(F)c1cc(Cl)cc2c(Cl)nn(CC3=NCCN3)c12 [Compound 64] = < 20%
• Clc1nn(CC2=NCCN2)c2c(-n3cccc3)cccc12 [Compound 33] = > 61%
• Clc1cccc2c(N3CCCC3)nn(CC3=NCCN3)c12 [Compound 56] = < 20%
• Clc1nn(CC2=NCCN2)c2c(-c3ccon3)cccc12 [Compound 59] = < 20%
• Clc1cccc2c(-c3ncco3)nn(CC3=NCCN3)c12 [Compound 55] = < 20%
• Clc1cccc2c(-n3cccn3)nn(CC3=NCCN3)c12 [Compound 60] = > 61%
• CC(C)c1ccc(Cl)c2c1c(S(C)(=O)=O)cn2CC1=NCCN1 [Compound 9] = < 20%
• Clc1cccc2c(-c3cccnc3)nn(CC3=NCCN3)c12 [Compound 14] = < 20%
• Clc1cccc2c(-c3ccon3)nn(CC3=NCCN3)c12 [Compound 63] = > 61%

----------
Overview of reported EC50 across a group of molecules:
System Tested: α1A-ARs (Homo sapiens)
Experiment Notes: Calcium flux assay (Calcium 6 dye) in cells expressing an α1-AR
Format: cell-based
Conditions: α1A-AR calcium flux; mean of at least three experiments; read-out: Average pEC50 (converted)
Metric: EC50

• Cc1cn(CC2=NCCN2)c2c(Cl)cccc12 = < 9.77 nM
• Clc1cccc2c(-c3ccccn3)nn(CC3=NCCN3)c12 = 10 to 977 nM
• Cc1cc(C(F)(F)F)cc2c(Cl)nn(CC3=NCCN3)c12 = 10 to 977 nM

----------
System Tested: α1A-ARs (Homo sapiens)
Experiment Notes: Calcium flux assay (Calcium 6 dye) in cells expressing an α1-AR
Assay type: cell-based
Conditions: α1A-AR calcium flux; mean of at least three experiments; read-out: Average pEC50 (converted)
Description: Calcium flux experimental design: alpha-1 adrenergic receptors (α1-ARs) couple to Gq proteins, which results in downstream activation of phospholipase C and release of calcium from intracellular stores. Intracellular calcium increase upon α1-AR activation can be detected by Calcium 6 dye. […] For each assay well, baseline Calcium 6 fluorescence was detected for 18 seconds prior to 12 μL compound addition at 12 μL per second. […]
The reader will find reported EC50 values listed item by item below.
Metric: EC50

- FC(F)(F)c1cccc2c(Cl)nn(CC3=NCCN3)c12: 10 to 977 nM
- Cc1cc2cccc(Cl)c2n1CC1=NCCN1: > 1000 nM
- FC(F)(F)Oc1cccc2c(Cl)nn(CC3=NCCN3)c12: 10 to 977 nM
- Clc1nn(CC2=NCCN2)c2c(-n3cccc3)cccc12: 10 to 977 nM
- Clc1nn(CC2=NCCN2)c2c(Cl)cccc12: 10 to 977 nM
- Fc1cc(F)c2c(c1)c(C1CC1)cn2CC1=NCCN1: < 9.77 nM
- Clc1cccc2c(-c3ccncc3)nn(CC3=NCCN3)c12: 10 to 977 nM
- Clc1cccc2ccn(CC3=NCCN3)c12: 10 to 977 nM
- Fc1ccc2c(Cl)nn(CC3=NCCN3)c2c1Cl: 10 to 977 nM
- Clc1cccc2c(C3CC3)cn(CC3=NCCN3)c12: < 9.77 nM
- Clc1nn(CC2=NCCN2)c2c(-c3cnccn3)cccc12: > 1000 nM
- Cc1cc(Cl)cc2c(N3CCCCC3)nn(CC3=NCCN3)c12: > 1000 nM
- Clc1cccc2c(-n3cccn3)nn(CC3=NCCN3)c12: > 1000 nM
- Fc1ccc2c(C3CC3)cn(CC3=NCCN3)c2c1Cl: < 9.77 nM
- Clc1nn(CC2=NCCN2)c2c(N3CCCC3)cccc12: > 1000 nM
- FC(F)c1cccc2c(Cl)nn(CC3=NCCN3)c12: > 1000 nM
- Clc1cccc2c1c(Cl)nn2CC1=NCCN1: > 1000 nM
- Clc1cccc2c(N3CCCC3)nn(CC3=NCCN3)c12: > 1000 nM
- Cc1cccc2c(C(C)(F)F)nn(CC3=NCCN3)c12: 10 to 977 nM
- CC(C)c1ccc(Cl)c2c1c(S(C)(=O)=O)cn2CC1=NCCN1: > 1000 nM
- Clc1ccc2c(c1)c(Cl)nn2CC1=NCCN1: > 1000 nM

----------
System Tested: α1A-ARs (Homo sapiens)
Experiment Notes: Calcium flux assay (Calcium 6 dye) in cells expressing an α1-AR
Format: cell-based
Conditions: α1A-AR calcium flux; mean of at least three experiments; read-out: Average pEC50 (converted)
Item-by-item account of EC50
Metric: EC50

- Fc1cc(Cl)c2c(c1)c(Cl)nn2CC1=NCCN1 [Compound 23]: 0.01 to 0.977 µM
- Clc1nn(CC2=NCCN2)c2c(N3CCCCC3)cccc12 [Compound 70]: 0.01 to 0.977 µM
- Clc1cccc2c(-c3cccnc3)nn(CC3=NCCN3)c12 [Compound 14]: > 1 µM
- Cc1cc(Cl)cc2c(Cl)nn(CC3=NCCN3)c12 [Compound 46]: 0.01 to 0.977 µM
- Clc1cccc2cnn(CC3=NCCN3)c12 [Compound 15]: > 1 µM
- Clc1cccc2c(C3=CCOCC3)nn(CC3=NCCN3)c12 [Compound 54]: > 1 µM
- FC(F)(F)c1cc(Cl)cc2c(Cl)nn(CC3=NCCN3)c12 [Compound 64]: > 1 µM
- Clc1nn(CC2=NCCN2)c2c(-c3ccccc3)cccc12 [Compound 34]: 0.01 to 0.977 µM
- N#Cc1cn(CC2=NCCN2)c2c(Cl)cccc12 [Compound 18]: 0.01 to 0.977 µM
- Fc1cc(C(F)(F)F)c2c(c1)c(Cl)nn2CC1=NCCN1 [Compound 65]: 0.01 to 0.977 µM
- COc1ccc(C(C)C)c2ccn(CC3=NCCN3)c12 [Compound 7]: 0.01 to 0.977 µM
- Cc1cccc2c(N3CCCCC3)nn(CC3=NCCN3)c12 [Compound 68]: > 1 µM
- Clc1cccc2c(-c3ccccc3)nn(CC3=NCCN3)c12 [Compound 42]: > 1 µM
- CC(C)(C)c1nn(CC2=NCCN2)c2c(Cl)cccc12 [Compound 16]: > 1 µM
- Clc1cn(-c2cn[nH]c2)c2cc(CC3=NCCN3)ccc12 [Compound 4]: > 1 µM
- Cc1cc(Cl)cc2c(N3CCCC3)nn(CC3=NCCN3)c12 [Compound 66]: 0.01 to 0.977 µM
- Clc1cccc2c(-c3ccon3)nn(CC3=NCCN3)c12 [Compound 63]: 0.01 to 0.977 µM
- Cc1ccnc2c(Cl)nn(CC3=NCCN3)c12 [Compound 30]: 0.01 to 0.977 µM
- Clc1cccc2c(-c3ncco3)nn(CC3=NCCN3)c12 [Compound 55]: > 1 µM
- Fc1cc(Cl)c2c(c1)c(C1CC1)cn2CC1=NCCN1 [Compound 8]: 0.01 to 0.977 µM
- FC(F)(F)c1cccc2c(N3CCCC3)nn(CC3=NCCN3)c12 [Compound 71]: > 1 µM
- Clc1nn(CC2=NCCN2)c2c(-c3ccon3)cccc12 [Compound 59]: > 1 µM
- Cc1cc(F)cc2c(Cl)nn(CC3=NCCN3)c12 [Compound 50]: > 1 µM
- Clc1cccc2c(-n3cccc3)nn(CC3=NCCN3)c12 [Compound 58]: 0.01 to 0.977 µM
- CC(F)(F)c1cc(Cl)cc2c(Cl)nn(CC3=NCCN3)c12 [Compound 72]: 0.01 to 0.977 µM
- Cc1cn(CC2=NCCN2)c2c(Cl)ccc(C(C)C)c12 [Compound 5]: 0.01 to 0.977 µM
- CCc1cccc2c(Cl)nn(CC3=NCCN3)c12 [Compound 40]: 0.01 to 0.977 µM
- Fc1cccc2c(Cl)nn(CC3=NCCN3)c12 [Compound 26]: 0.01 to 0.977 µM
- Cc1cccc2c(C(F)(F)F)nn(CC3=NCCN3)c12 [Compound 61]: > 1 µM
- CC(C)c1cccc2c(Cl)nn(CC3=NCCN3)c12 [Compound 47]: 0.01 to 0.977 µM
- CC(F)(F)c1cccc2c(Cl)nn(CC3=NCCN3)c12 [Compound 39]: 0.01 to 0.977 µM
- CC(F)(F)c1cc(F)cc2c(Cl)nn(CC3=NCCN3)c12 [Compound 75]: 0.01 to 0.977 µM
- Clc1nn(CC2=NCCN2)c2c(-n3cccn3)cccc12 [Compound 36]: 0.01 to 0.977 µM
- CC(F)(F)c1cccc2c(N3CCCC3)nn(CC3=NCCN3)c12 [Compound 74]: > 1 µM
- Cc1cc(F)cc2c(N3CCCC3)nn(CC3=NCCN3)c12 [Compound 77]: 0.01 to 0.977 µM
- Clc1nn(CC2=NCCN2)c2c(-c3ccccn3)cccc12 [Compound 48]: 0.01 to 0.977 µM
- FC(F)(F)Cc1cccc2c(Cl)nn(CC3=NCCN3)c12 [Compound 53]: > 1 µM
- Cc1cc2c(C(C)C)ccc(Cl)c2n1CC1=NCCN1 [Compound 10]: 0.01 to 0.977 µM
- CC(C)Oc1cccc2c(Cl)nn(CC3=NCCN3)c12 [Compound 38]: > 1 µM
- Clc1ccc2c(Cl)nn(CC3=NCCN3)c2c1 [Compound 32]: 0.01 to 0.977 µM
- FC(F)(F)c1nn(CC2=NCCN2)c2c(Cl)cccc12 [Compound 25]: 0.01 to 0.977 µM
